Target: Prostaglandin G/H synthase 2 (Homo sapiens, UniProt P35354)
Sequence (P35354 whole entry): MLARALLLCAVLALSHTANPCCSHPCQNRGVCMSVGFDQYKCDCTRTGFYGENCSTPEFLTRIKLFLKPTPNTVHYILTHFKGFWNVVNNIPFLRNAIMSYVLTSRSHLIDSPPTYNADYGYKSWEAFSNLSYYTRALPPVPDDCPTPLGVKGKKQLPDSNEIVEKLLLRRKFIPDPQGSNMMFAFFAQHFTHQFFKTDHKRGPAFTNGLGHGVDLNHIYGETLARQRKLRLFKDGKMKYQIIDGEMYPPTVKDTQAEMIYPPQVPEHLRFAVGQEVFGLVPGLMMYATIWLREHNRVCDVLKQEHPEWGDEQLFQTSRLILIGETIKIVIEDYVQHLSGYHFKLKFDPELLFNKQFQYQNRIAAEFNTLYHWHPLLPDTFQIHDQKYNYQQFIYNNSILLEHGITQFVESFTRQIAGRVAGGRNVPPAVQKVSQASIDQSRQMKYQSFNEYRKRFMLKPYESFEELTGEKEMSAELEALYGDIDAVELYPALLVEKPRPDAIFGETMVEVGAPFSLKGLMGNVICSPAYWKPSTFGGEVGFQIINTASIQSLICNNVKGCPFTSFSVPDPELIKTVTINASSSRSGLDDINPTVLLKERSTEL
Experiment: Inhibition of COX-2 (unknown origin)
In this section, each of the compounds is paired with its reported IC50.
Entry format: amount then unit.

Consider the reported IC50 for these compounds:
compound: CC(C)=CC[C@H]1C[C@@H]2C[C@@H]3[C@@H](C[C@]4(C)C(C)(C)OC[C@]34C)C(=O)[C@](C(=O)c3ccccc3)(C1=O)C2(C)C
IC50: 5.27 µM
--
compound: Cc1c(C(=O)NNC(=S)Nc2ccccc2)nnn1-c1ccc(S(N)(=O)=O)cc1
IC50: 2.61 µM
--
compound: C/C(=N\NC(=O)c1nnn(-c2ccc(S(N)(=O)=O)cc2)c1C)c1nnn(-c2ccc(S(N)(=O)=O)cc2)c1C
IC50: 2.61 µM
--
compound: Cc1c(C2=NNC(c3ccccc3)C2)nnn1-c1ccc(S(N)(=O)=O)cc1 (stereo unspecified)
IC50: 2.61 µM

Lookup: Entry under review: CCC(C)C(=O)[C@H]1C(=O)[C@@]2(CC=C(C)C)C[C@H](C[C@H]3[C@@H](C[C@H](C(C)(C)O)C3(C)C)C2=O)C1(C)C (stereo partly specified) . Reported IC50?
Found: 8.32 µM

Lookup: Can you share its IC50? I mean this compound: `Cc1c(C(=O)NN)nnn1-c1ccc(S(N)(=O)=O)cc1`
Found: 2.92 µM

Lookup: Which measured IC50 value corresponds to `C/C(=N\NC(=O)c1nnn(-c2ccc(S(N)(=O)=O)cc2)c1C)c1cc2ccccc2o1` ?
Found: 2.61 µM

Lookup: Entry under review: CC(=O)N1N=C(c2nnn(-c3ccc(S(N)(=O)=O)cc3)c2C)CC1c1ccccc1 (stereo unspecified) . Reported IC50?
Found: 2.61 µM

Lookup: Return reported IC50; argument: `CCC(=O)c1nnn(-c2ccc(S(N)(=O)=O)cc2)c1C`
Found: 2.61 µM

Lookup: Which IC50 value belongs to `CC(=O)c1nnn(-c2ccc(S(N)(=O)=O)cc2)c1C` ?
Found: 2.61 µM

Lookup: What value of IC50 has been reported for the following compound? `Cc1c(C(=O)/C=C/c2ccccc2)nnn1-c1ccc(S(N)(=O)=O)cc1`
Found: 2.61 µM

---

Molecular target: Prostaglandin G/H synthase 2 (Homo sapiens)
Test: Inhibition of COX-2 (unknown origin) by colorimetric assay
recorded_metric: pIC50
Convention used: pIC50 is expressed as -log10 of the molar concentration.

input_smiles: CCCCNc1cc(C(=O)n2nc(C)cc2-c2ccccc2)cc(S(N)(=O)=O)c1Oc1ccccc1
pIC50: 6.49
//
input_smiles: CCCCNc1cc(-c2n[nH]c(=S)o2)cc(S(N)(=O)=O)c1Oc1ccccc1
pIC50: 5.24
//
input_smiles: CCCCNc1cc(C(=O)N/N=c2\scc(-c3ccc(C)cc3)n2-c2ccccc2)cc(S(N)(=O)=O)c1Oc1ccccc1
pIC50: 5.82

Lookup: Entry under review: `CCCCNc1cc(C(=O)N/N=c2\scc(-c3ccc(Cl)cc3)n2-c2ccccc2)cc(S(N)(=O)=O)c1Oc1ccccc1` . Reported pIC50?
Found: 5.82

Lookup: # input compound: `C=CCn1c(-c2ccc(OC)cc2)cs/c1=N\NC(=O)c1cc(NCCCC)c(Oc2ccccc2)c(S(N)(=O)=O)c1` ; wanted: its pIC50
Found: 5.82

Lookup: # pIC50 lookup, item `C=CCn1c(-c2ccc(Cl)cc2)cs/c1=N\NC(=O)c1cc(NCCCC)c(Oc2ccccc2)c(S(N)(=O)=O)c1`
Found: 5.82

---

Molecular target: Albumin (Bos taurus)
Sequence (P02769 whole entry): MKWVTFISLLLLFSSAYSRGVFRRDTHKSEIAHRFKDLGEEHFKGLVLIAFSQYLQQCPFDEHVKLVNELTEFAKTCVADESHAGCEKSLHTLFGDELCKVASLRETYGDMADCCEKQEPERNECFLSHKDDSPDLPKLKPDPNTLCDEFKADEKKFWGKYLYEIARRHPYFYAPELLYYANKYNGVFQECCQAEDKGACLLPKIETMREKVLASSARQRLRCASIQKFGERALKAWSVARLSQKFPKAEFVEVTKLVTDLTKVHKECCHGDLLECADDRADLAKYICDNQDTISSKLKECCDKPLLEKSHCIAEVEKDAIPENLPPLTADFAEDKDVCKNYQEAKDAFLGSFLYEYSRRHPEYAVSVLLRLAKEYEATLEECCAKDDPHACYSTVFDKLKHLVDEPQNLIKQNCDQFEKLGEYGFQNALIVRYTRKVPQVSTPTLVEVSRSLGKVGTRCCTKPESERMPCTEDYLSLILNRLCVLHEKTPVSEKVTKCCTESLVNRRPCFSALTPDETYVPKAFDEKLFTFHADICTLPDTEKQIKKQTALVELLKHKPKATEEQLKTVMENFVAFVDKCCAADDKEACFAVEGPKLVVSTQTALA
Assay: Inhibition of bovine serum albumin denaturation incubated for 15 mins
recorded_metric: IC50 (µM)
Answer in µM, number only, no unit symbol.

Lookup: Please give the measured IC50 for this compound: COc1ccc(C2=NN(C(N)=O)C(c3cn(-c4ccccc4)nc3-c3ccccc3)C2)cc1 (stereo unspecified)
Found: 43.5

---

# pIC50 per record follows
Molecular target: Polyunsaturated fatty acid lipoxygenase ALOX15 (Homo sapiens, UniProt P16050)
Sequence (P16050 whole entry): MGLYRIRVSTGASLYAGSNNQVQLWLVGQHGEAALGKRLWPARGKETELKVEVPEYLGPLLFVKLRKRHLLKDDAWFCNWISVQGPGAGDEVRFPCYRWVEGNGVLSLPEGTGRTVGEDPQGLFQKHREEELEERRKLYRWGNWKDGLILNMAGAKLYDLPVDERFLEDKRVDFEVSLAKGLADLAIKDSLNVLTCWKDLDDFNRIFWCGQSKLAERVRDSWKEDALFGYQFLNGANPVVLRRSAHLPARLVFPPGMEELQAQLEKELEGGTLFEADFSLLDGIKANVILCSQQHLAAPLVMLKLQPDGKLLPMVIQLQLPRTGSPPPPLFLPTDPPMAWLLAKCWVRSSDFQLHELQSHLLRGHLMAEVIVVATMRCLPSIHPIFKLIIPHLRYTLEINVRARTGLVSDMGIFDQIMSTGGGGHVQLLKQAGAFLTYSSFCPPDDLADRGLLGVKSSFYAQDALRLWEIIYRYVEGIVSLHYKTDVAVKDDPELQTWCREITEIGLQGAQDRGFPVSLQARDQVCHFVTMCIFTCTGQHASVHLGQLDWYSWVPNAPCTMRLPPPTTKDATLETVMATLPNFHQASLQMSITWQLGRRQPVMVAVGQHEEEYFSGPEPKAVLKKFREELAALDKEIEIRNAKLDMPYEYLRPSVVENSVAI
Expect pIC50 as a plain number equal to -log10 of the molar concentration.

Example results:
input_smiles: Cc1nnc(/N=C2\NC(=O)/C(=C/c3ccc(N(C)C)cc3)S2)s1
tested_system: Polyunsaturated fatty acid lipoxygenase ALOX15 (Homo sapiens, UniProt P16050)
endpoint_value: 5.51

input_smiles: Cc1nnc(/N=C2\NC(=O)/C(=C/c3cccnc3)S2)s1
tested_system: Polyunsaturated fatty acid lipoxygenase ALOX15 (Homo sapiens, UniProt P16050)
endpoint_value: 5.47

input_smiles: Cc1ccc(-c2nnc(/N=C3\NC(=O)CS3)s2)cc1
tested_system: Polyunsaturated fatty acid lipoxygenase ALOX15 (Homo sapiens, UniProt P16050)
endpoint_value: 5.60

input_smiles: Cc1nnc(/N=C2\NC(=O)/C(=C/c3ccc(O)cc3)S2)s1
tested_system: Polyunsaturated fatty acid lipoxygenase ALOX15 (Homo sapiens, UniProt P16050)
endpoint_value: 5.51

input_smiles: O=C1CS/C(=N/c2nnc(-c3ccc(Br)cc3)s2)N1
tested_system: Polyunsaturated fatty acid lipoxygenase ALOX15 (Homo sapiens, UniProt P16050)
endpoint_value: 5.60

Lookup: Give the measured pIC50 of `COc1ccc(/C=C2\S/C(=N/c3nnc(C)s3)NC2=O)cc1` .
Found: 5.51

Lookup: Requested read-out: pIC50. Entry: `Cc1nnc(/N=C2\NC(=O)/C(=C/c3ccsc3)S2)s1`
Found: 5.47

Lookup: Please look up its pIC50: `Cc1nnc(/N=C2\NC(=O)/C(=C/C3CCCCC3)S2)s1`
Found: 5.47

Lookup: Name the reported pIC50 value associated with the molecule `Cc1nnc(/N=C2\NC(=O)/C(=C/c3ccc(F)cc3)S2)s1`
Found: 5.51

---

Target: Dihydrofolate reductase (Homo sapiens, UniProt P00374)
Sequence (P00374 whole entry): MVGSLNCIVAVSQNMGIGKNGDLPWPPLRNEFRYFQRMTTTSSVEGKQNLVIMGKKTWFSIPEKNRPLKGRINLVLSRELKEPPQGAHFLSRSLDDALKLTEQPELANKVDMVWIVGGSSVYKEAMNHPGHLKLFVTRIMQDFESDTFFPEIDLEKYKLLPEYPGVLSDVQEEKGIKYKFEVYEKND
recorded_metric: pIC50
Please report pIC50 as the negative decimal logarithm of the molar concentration, giving only the number.

Lookup: Please give the measured pIC50 for this compound: `COc1cc(/C=C2\N=C(c3ccccc3)N(c3ccc(S(N)(=O)=O)cc3)C2=O)ccc1OC(=O)c1ccccc1`
Found: 6.55

---

Biological target: COX-1/COX-2 (Homo sapiens) (UniProt P35354+P23219)
Experiment: Selectivity index, ratio of IC50 for inhibition of COX-1 (unknown origin) to IC50 for inhibition of COX-2 (unknown origin)
Assay type: protein assay
recorded_metric: Ratio IC50
Lab note: record just the number, no unit beside it.

These solved cases illustrate the format of a correct answer.
compound: NS(=O)(=O)c1ccc(-c2nn(-c3ccc([N+](=O)[O-])cc3)cc2C=O)cc1
Ratio IC50: 0.008

compound: CC(=O)c1nnn(-c2ccc(S(N)(=O)=O)cc2)c1C
Ratio IC50: 1.95

compound: Cc1c(C2=NNC(c3ccccc3)C2)nnn1-c1ccc(S(N)(=O)=O)cc1 (stereo unspecified)
Ratio IC50: 1.95

// next item, Ratio IC50 requested
Lookup: Record request: Ratio IC50 value, item `NS(=O)(=O)c1ccc(-n2cc(-c3ccc(C(F)(F)F)cc3)nn2)cc1`
Found: 0.008

---

Molecular target: Prostaglandin G/H synthase 2 (Homo sapiens, UniProt P35354)
Assay: Inhibition of human COX-2 using arachidonic acid as substrate incubated for 30 secs by ELISA
recorded_metric: pIC50
# pIC50 is unitless: minus log10 of the molar concentration; print number only

Use these answered entries as a reference point.
input_smiles: CS(=O)(=O)c1ccc(-c2nn(-c3ccc(S(N)(=O)=O)cc3)cc2C=O)cc1
tested_system: Prostaglandin G/H synthase 2 (Homo sapiens, UniProt P35354)
endpoint_value: 7.77
--
input_smiles: CS(=O)(=O)c1ccc(-n2cc(-c3ccc(C(F)(F)F)cc3)nn2)cc1
tested_system: Prostaglandin G/H synthase 2 (Homo sapiens, UniProt P35354)
endpoint_value: 6.65
--
input_smiles: NS(=O)(=O)c1ccc(-n2cc(-c3ccc(C(F)(F)F)cc3)nn2)cc1
tested_system: Prostaglandin G/H synthase 2 (Homo sapiens, UniProt P35354)
endpoint_value: 5.48

Lookup: Form entry - test system: Prostaglandin G/H synthase 2 (Homo sapiens, UniProt P35354); read-out: pIC50; compound: `CS(=O)(=O)c1ccc(C(=O)OCCn2cc(-c3ccc(C(F)(F)F)cc3)nn2)cc1`
Found: 8.70

Lookup: # get_value(readout= pIC50, system= Prostaglandin G/H synthase 2 (Homo sapiens, UniProt P35354)) for `NS(=O)(=O)c1ccc(-c2nn(-c3ccc([N+](=O)[O-])cc3)cc2C=O)cc1`
Found: 7.77

Lookup: Write down the reported pIC50 of `NS(=O)(=O)c1ccc(C(=O)OCCn2cc(-c3ccc(C(F)(F)F)cc3)nn2)cc1` , test system: Prostaglandin G/H synthase 2 (Homo sapiens, UniProt P35354).
Found: 6.88

Lookup: Give recorded pIC50 with Prostaglandin G/H synthase 2 (Homo sapiens, UniProt P35354) for the following compound: `O=Cc1cn(-c2ccc(Br)cc2)nc1-c1ccc(Br)cc1`
Found: 7.77
